B1: library; a variant is named by its letters at N, in order (parent)
chain: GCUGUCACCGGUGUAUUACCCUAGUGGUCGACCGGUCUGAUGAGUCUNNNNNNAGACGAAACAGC

variants of: B1; assay: normalized RNA/DNA level without ligand (relative to sTRSVctl = 100) (log10 (% of sTRSVctl)); ligand: hypoxanthine (xanthine aptamer); higher = less ribozyme self-cleavage, higher mRNA level; settings: HEK293T, reporter: mCherry (pCS4076), ligand present: no
Measured normalized RNA/DNA level without ligand (log10) by item
measured parameter: normalized RNA/DNA level without ligand (log10)

# macromolecule sequence, value observed
measured = [
    ("GCUGUCACCGGUGUAUUACCCUAGUGGUCGACCGGUCUGAUGAGUCUCCCCGCAGACGAAACAGC [CCCCGC]", 1.9),
    ("GCUGUCACCGGUGUAUUACCCUAGUGGUCGACCGGUCUGAUGAGUCUCUCCUUAGACGAAACAGC [CUCCUU]", 1.89),
    ("GCUGUCACCGGUGUAUUACCCUAGUGGUCGACCGGUCUGAUGAGUCUGACAGUAGACGAAACAGC [GACAGU]", 1.8),
    ("GCUGUCACCGGUGUAUUACCCUAGUGGUCGACCGGUCUGAUGAGUCUUGACUCAGACGAAACAGC [UGACUC]", 1.97),
    ("GCUGUCACCGGUGUAUUACCCUAGUGGUCGACCGGUCUGAUGAGUCUAUUAGAAGACGAAACAGC [AUUAGA]", 1.71),
    ("GCUGUCACCGGUGUAUUACCCUAGUGGUCGACCGGUCUGAUGAGUCUUGCUCGAGACGAAACAGC [UGCUCG]", 1.77),
    ("GCUGUCACCGGUGUAUUACCCUAGUGGUCGACCGGUCUGAUGAGUCUCGGACAAGACGAAACAGC [CGGACA]", 1.66),
    ("GCUGUCACCGGUGUAUUACCCUAGUGGUCGACCGGUCUGAUGAGUCUCUUGCGAGACGAAACAGC [CUUGCG]", 1.85),
    ("GCUGUCACCGGUGUAUUACCCUAGUGGUCGACCGGUCUGAUGAGUCUGCCCCGAGACGAAACAGC [GCCCCG]", 1.52),
    ("GCUGUCACCGGUGUAUUACCCUAGUGGUCGACCGGUCUGAUGAGUCUUCGGGGAGACGAAACAGC [UCGGGG]", 1.69),
    ("GCUGUCACCGGUGUAUUACCCUAGUGGUCGACCGGUCUGAUGAGUCUUAACUCAGACGAAACAGC [UAACUC]", 1.97),
    ("GCUGUCACCGGUGUAUUACCCUAGUGGUCGACCGGUCUGAUGAGUCUCGCAAGAGACGAAACAGC [CGCAAG]", 1.78),
    ("GCUGUCACCGGUGUAUUACCCUAGUGGUCGACCGGUCUGAUGAGUCUGACGUUAGACGAAACAGC [GACGUU]", 1.85),
    ("GCUGUCACCGGUGUAUUACCCUAGUGGUCGACCGGUCUGAUGAGUCUGCCUAUAGACGAAACAGC [GCCUAU]", 1.85),
    ("GCUGUCACCGGUGUAUUACCCUAGUGGUCGACCGGUCUGAUGAGUCUGCUUCUAGACGAAACAGC [GCUUCU]", 1.94),
    ("GCUGUCACCGGUGUAUUACCCUAGUGGUCGACCGGUCUGAUGAGUCUAUUCUUAGACGAAACAGC [AUUCUU]", 1.93),
    ("GCUGUCACCGGUGUAUUACCCUAGUGGUCGACCGGUCUGAUGAGUCUAGCGCUAGACGAAACAGC [AGCGCU]", 1.85),
    ("GCUGUCACCGGUGUAUUACCCUAGUGGUCGACCGGUCUGAUGAGUCUCGGCGAAGACGAAACAGC [CGGCGA]", 1.74),
    ("GCUGUCACCGGUGUAUUACCCUAGUGGUCGACCGGUCUGAUGAGUCUGAUCUUAGACGAAACAGC [GAUCUU]", 1.94),
]

Cited source for all entries: the supplement of paper PMC6757056
